experiment: Plasma free fraction (fu) and unbound Cmax (Cmax,u); assay type: in vitro ADME, human; conditions: unbound plasma Cmax
Measurement Label: Human plasma Cmax,u
Please answer using the number first and the unit second.

Asked: Which Human plasma Cmax,u is listed for O=C1CN(/N=C/c2ccc(-c3ccc([N+](=O)[O-])cc3)o2)C(O)=N1 ?
Given back: 552 nM

Asked: Which Human plasma Cmax,u is listed for CC(=O)N1CCN(c2ccc(OCC3COC(Cn4ccnc4)(c4ccc(Cl)cc4Cl)O3)cc2)CC1 (stereo not drawn) [ketoconazole, reference compound] ?
Given back: 565 nM

Asked: Which Human plasma Cmax,u is listed for CN(Cc1cnc2nc(N)nc(N)c2n1)c1ccc(C(=O)N[C@@H](CCC(=O)O)C(=O)O)cc1 [methotrexate, reference compound] ?
Given back: 2315 nM
